Field: cell count. Provide a value for each of the compounds that follow.
- Assay Explanation: cell-permeable autofluorescent compounds in GFP channel, dose response, artefact control, imaging, high-content imaging (AID 2124);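 also: cells exposed to compound for 48 hours before fixing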
- Assay Conditions: cells, GFP-channel autofluorescence, high-content imaging; cell count; at 10 µM
Inconclusive results are not listed.
Numbers only, in cells.

For every item below, please supply its cell count.
1. Oc1ccc(/C=N/Nc2ccnc3cc(Cl)ccc23)c(O)c1
2. C=CCN1C(=O)/C(=C/c2ccc(N(C)C)cc2)S/C1=N\c1nnc(CC)s1
3. CN(CCCNC(=O)CN1C(=O)CC(C)(C)S(=O)(=O)c2ccccc21)C1CCCCC1
4. CCCS(=O)(=O)N1CCC(C(=O)N2CCOCC2)CC1
5. N#Cc1cccc(NC(=O)CSc2ccc3c4c(cccc24)C(=O)c2ccccc2-3)c1

1: 1690; 2: 2900; 3: 3030; 4: 2930; 5: 3090

For every item below, please supply its cell count.
1. O=c1c([N+](=O)[O-])cccn1Cc1ccc(F)cc1Cl
2. Cc1cc(/C=C2\SC(=S)NC2=O)c(C)n1-c1ccc(O)cc1

1. 2960
2. 3000

For every item below, please supply its cell count.
1. CCN(CCNC(=O)C1CCCN(S(=O)(=O)CC)C1)c1ccccc1 (centres undefined)
2. O=c1c(Cl)c2oc3ccccc3nc-2c2ccccc12
3. COCCNC(=O)c1onc(CSc2cccc(C)c2)c1C(=O)O
4. CC(=O)Oc1ccc2c(c1)Oc1cc(OC(C)=O)ccc1C21OC(=O)c2ccccc21

[3430, 2670, 3170, 3270]

For every item below, please supply its cell count.
1. CCn1ncc(Br)c1C(=O)Nc1sc2c(c1C(N)=O)CCC2
2. Nc1c(C(=O)Nc2nccs2)sc2nc(-c3cccs3)cc(C(F)(F)F)c12
3. CN1CCN(C2=CC3=CC(=C(C#N)C#N)CCC3CC2)CC1 (centres undefined)
4. CC(=O)c1sc2nc(-c3cccs3)cc(C(F)(F)F)c2c1N
5. CCCNC(=O)N1CCC(C(=O)c2ccc(Cl)cc2)CC1
6. O=C(O)c1cc(-c2ccncc2)nc2ccc(F)cc12
7. CCOc1ccc(NC(=O)Cn2c(=O)oc3ccccc32)cc1

1. 3350
2. 2940
3. 2810
4. 3260
5. 2970
6. 3070
7. 3070

For every item below, please supply its cell count.
1. CCOc1ccc(-c2c(C#N)c(N)nc3sc(C(=O)c4ccccc4)c(N)c23)cc1
2. COc1ccc2c(C)cc(SCC(=O)N(C)C3CCS(=O)(=O)C3)nc2c1 (centres undefined)
3. CCN(CC)c1ccc2cc(/C(N)=N/NC(=O)c3cccs3)c(=O)oc2c1

1. 3090
2. 3270
3. 3050

For every item below, please supply its cell count.
1. N#C/C(=C\N1CCN(Cc2ccc3c(c2)OCO3)CC1)c1nc2ccccc2s1
2. Cn1c(/C(C#N)=C/c2ccc(-c3ccc(S(N)(=O)=O)cc3)o2)nc2ccccc21
3. O=C(NCc1cn2ccccc2n1)c1ccco1
4. Nc1cccc2c1C(=O)N(C(=O)c1cccc(S(=O)(=O)N3CCCC3)c1)C2=O
5. CCN(CC)c1ccc2cc(C(=O)Nc3ccccn3)c(=O)oc2c1

3300
2680
3100
3320
3080

For every item below, please supply its cell count.
1. N#C/C(=C\c1ccc(N2CCOCC2)o1)c1nc2ccccc2[nH]1
2. O=C1C2C3C=CC(C3)C2C(=O)N1CCc1ccccc1 (centres undefined)
3. CC(=O)Nc1cccc(C(=O)/C=C/c2ccc(N(C)C)cc2)c1
4. CCOC(=O)c1cnn(-c2cc(C)nc3c(-c4ccccc4)cnn23)c1N

1: 2400; 2: 3430; 3: 2940; 4: 3280

For every item below, please supply its cell count.
1. COC(=O)c1sc2ccccc2c1-n1cccc1C(=O)C(=O)Nc1ccc(F)cc1
2. CCOC(=O)c1ccc(NC(=O)COc2ccc(S(=O)(=O)NC(C)CC)cc2)cc1 (centres undefined)

[3000, 3160]

---

Field: cell count. Provide a value for each of the compounds that follow.
- Assay Explanation: cell-permeable autofluorescent compounds in GFP channel, dose response, artefact control, imaging, high-content imaging (AID 2124);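 also: cells exposed to compound for 48 hours before fixing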
- Assay Conditions: cells, GFP-channel autofluorescence, high-content imaging; cell count; at 10 µM
Inconclusive results are not listed.
Numbers only, in cells.

Solved entries (count: 4):
Compound: Cc1nonc1NC(=O)CSc1nc2c(C)cccc2cc1C#N
Endpoint Label: cell count
Units Of Measure: cells
Measurement: 3270
--
Compound: O=C(CC12CC3CC(CC(C3)C1)C2)NCC(=O)N1CCc2ccccc2C1
Endpoint Label: cell count
Units Of Measure: cells
Measurement: 2920
--
Compound: N#Cc1c(-c2ccco2)cc(C2CC2)nc1SCC(=O)c1ccccc1
Endpoint Label: cell count
Units Of Measure: cells
Measurement: 3090
--
Compound: Cc1ccc(C2CC(=O)NC(SCc3ccccc3)=C2C#N)o1 (stereo unspecified)
Endpoint Label: cell count
Units Of Measure: cells
Measurement: 3270

For every item below, please supply its cell count.
1. CC(C)(C)C(=O)c1sc2nc(-c3cccs3)cc(C(F)(F)F)c2c1N
2. Cc1ccc(N2C(=O)C3C(C(=O)c4ccccc4)=NN(c4ccccc4)C3C2=O)cc1 (stereo unspecified)

1: 2740; 2: 2980

For every item below, please supply its cell count.
1. COc1ccc(NC(=O)c2sc3nc(-c4cccnc4)ccc3c2N)cc1
2. Oc1c(C=NCc2ccc(F)cc2)[nH]c2ccc(Br)c(Cl)c12
3. C=CCN1C=CC(=CC=C(C#N)C#N)C=C1
4. CC(C)(C)c1ccc(OCC(=O)Nc2ccc3c4c(cccc24)C(=O)NC3=O)cc1
5. CC(=O)OC(C(=O)NCc1ccc(F)cc1)c1ccccn1 (stereo unspecified)
6. CN1/C(=C\C=C2/C(=O)Oc3ccccc3C2=O)C(C)(C)c2ccccc21
7. CN(C)c1ccc(/C=C2\N=C(c3ccc(Cl)c([N+](=O)[O-])c3)NC2=O)cc1
8. CCOCCCNc1nc2c(C)cccn2c(=O)c1/C=C1\SC(=S)N(C(C)CC)C1=O (stereo unspecified)

2880
3310
2960
2490
2840
3310
2940
2910

For every item below, please supply its cell count.
1. Cc1cc(N2C(=O)c3ccccc3C2=O)n(C)n1
2. COc1cccc(NC(=O)Cn2c(-c3cncs3)nc3ccccc32)c1

1. 2960
2. 3160

---

- Assay Explanation: cell-permeable autofluorescent compounds in GFP channel, dose response, artefact control, imaging, high-content imaging (AID 2124);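 also: cells exposed to compound for 48 hours before fixing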
- Assay Conditions: cells, GFP-channel autofluorescence, high-content imaging; cell count; at 10 µM
Inconclusive results are not listed.
Values of cell count greater than or equal to 3000 cells map to class 1; values below map to class 0.

State whether the measured cell count reaches 3000 cells, counting equality as reaching it, for COc1cccc2c(=O)n(CC(=O)Nc3cccc(F)c3)ccc12 class 1

State whether the measured cell count reaches 3000 cells, counting equality as reaching it, for CCc1cccc2cc3c(N)c(C(=O)Nc4ccc(S(=O)(=O)N5CCCC5)cc4)sc3nc12 class 0

State whether the measured cell count reaches 3000 cells, counting equality as reaching it, for O=C(O)c1ccccc1N/N=C/c1c(Sc2nnnn2-c2ccccc2)nc2ccccn2c1=O class 1

---

- Assay Explanation: cell-permeable autofluorescent compounds in GFP channel, dose response, artefact control, imaging, high-content imaging (AID 2124);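 also: cells exposed to compound for 48 hours before fixing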
- Assay Conditions: cells, GFP-channel autofluorescence, high-content imaging; cell count; at 10 µM
Records with an inconclusive call do not appear.
Could you please mark 1 (yes) for values of cell count below 3000 cells and 0 (no) for values at or above it?

Example entries and their recorded answers appear below.
Molecule: O=S(=O)(Nc1cc2nc3ccccc3nc2n1Cc1ccccc1)c1ccc(Cl)cc1
Label Value: 1 (yes)
//
Molecule: CC(C)C(c1nnnn1C1CCCC1)N1CCOCC1 (stereo unspecified)
Label Value: 0 (no)
//
Molecule: CC(C)OC(=O)CN1C(=O)S/C(=C/c2ccc(N3CCCCC3)o2)C1=O
Label Value: 1 (yes)

Consider now this further molecule.
Regarding CCN(CC)c1ccc(/C=C2\SC(=O)N(C(C)C)C2=O)o1 , kindly confirm whether its cell count is beneath 3000 cells. 1 (yes)

---

Field: cell count. Provide a value for each of the molecules that follow.
- Assay Explanation: cell-permeable autofluorescent compounds in GFP channel, dose response, artefact control, imaging, high-content imaging (AID 2124);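 also: cells exposed to compound for 48 hours before fixing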
- Assay Conditions: cells, GFP-channel autofluorescence, high-content imaging; cell count; at 10 µM
Records with an inconclusive call do not appear.
Give bare numbers, in cells.

Solved entries (count: 3):
Molecule: CCOC(=O)COc1ccc(C(=O)NC2CCCCC2)cc1
Measurement: 3240

Molecule: CCOc1ccc(-n2c(SCC(=O)NC(C)CC)nc3n[nH]c(C)c3c2=N)cc1 (stereo not given)
Measurement: 2580

Molecule: Cc1cc(C)nc(N2CCC(C(=O)Nc3ccc4c(c3)OCCO4)CC2)n1
Measurement: 2790

For every item below, please supply its cell count.
1. COc1ccc(/C(O)=C/c2nc3ccc(C(=O)NCCc4cccc(C)c4)cc3[nH]c2=O)cc1OC
2. Cc1ccc(S(=O)(=O)CCSc2nc(C)cc(C(F)(F)F)c2C#N)cc1
3. N#C/C(=C/c1ccc(-c2ccc(S(N)(=O)=O)cc2)o1)c1nc2ccccc2s1
4. Cc1ccc(-c2cn3nc(-c4ccccc4)c(-c4ccccc4)nc3n2)cc1
5. CCOC(=O)c1nnn(-c2nonc2N)c1-c1ccc(OCC)cc1
6. O=C(NCCc1csc(-c2ccccc2)n1)c1ccccc1F
7. CC1CC(C)CN(C(=O)c2cccc3c2-c2ccccc2C3=O)C1 (stereo not given)

[1180, 2460, 1680, 3200, 3520, 3010, 3240]
